test: AUC (infinity) in Sprague-Dawley rat at 30 mg/kg, po
Assay type: ADME, organism-based
Design: time infinity, dose 30 mg/kg, route oral
particulars: plasma
measured endpoint: AUC(0-inf) (ng·h/mL)
Give a bare numeral; the unit ng·h/mL is implied.

Entry Cc1ccc(F)cc1C(C)(C)C[C@@](O)(Cc1cc2cnccc2[nH]1)C(C)(C)C ; AUC(0-inf) = 6730

---

assay target: Glucocorticoid receptor (Homo sapiens)
Sequence (P04150 whole entry): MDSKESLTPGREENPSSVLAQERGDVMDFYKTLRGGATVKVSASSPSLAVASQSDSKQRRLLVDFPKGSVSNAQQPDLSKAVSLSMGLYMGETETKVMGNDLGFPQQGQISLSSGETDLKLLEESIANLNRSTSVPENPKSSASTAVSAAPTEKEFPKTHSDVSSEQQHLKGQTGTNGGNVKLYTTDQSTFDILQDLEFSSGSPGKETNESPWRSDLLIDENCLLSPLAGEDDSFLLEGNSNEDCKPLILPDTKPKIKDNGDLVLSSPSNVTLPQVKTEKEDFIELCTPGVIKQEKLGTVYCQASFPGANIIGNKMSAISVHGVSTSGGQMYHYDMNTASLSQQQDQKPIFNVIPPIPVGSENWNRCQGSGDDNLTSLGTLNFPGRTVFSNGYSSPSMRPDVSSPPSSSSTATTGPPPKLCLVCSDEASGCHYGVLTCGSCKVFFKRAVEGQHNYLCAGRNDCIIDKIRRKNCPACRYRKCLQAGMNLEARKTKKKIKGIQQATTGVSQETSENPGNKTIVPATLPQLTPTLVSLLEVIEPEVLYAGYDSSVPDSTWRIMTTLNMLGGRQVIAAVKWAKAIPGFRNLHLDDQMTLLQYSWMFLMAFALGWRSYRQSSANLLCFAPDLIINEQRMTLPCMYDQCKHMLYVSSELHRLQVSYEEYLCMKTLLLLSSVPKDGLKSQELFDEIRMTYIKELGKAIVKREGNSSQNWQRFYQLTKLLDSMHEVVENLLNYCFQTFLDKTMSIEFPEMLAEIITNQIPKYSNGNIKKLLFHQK
pIC50: −log10 of the molar value.
measured endpoint: pIC50

Entry Cc1ccc(F)cc1C(C)(C)C[C@@](O)(Cc1cc2cnccc2[nH]1)C(C)(C)C ; pIC50 = < 5.70

---

Record form. Attribute: pIC50. Fill in for each entry.
assay target: Mineralocorticoid receptor (Homo sapiens, UniProt P08235)
Sequence (P08235 whole entry): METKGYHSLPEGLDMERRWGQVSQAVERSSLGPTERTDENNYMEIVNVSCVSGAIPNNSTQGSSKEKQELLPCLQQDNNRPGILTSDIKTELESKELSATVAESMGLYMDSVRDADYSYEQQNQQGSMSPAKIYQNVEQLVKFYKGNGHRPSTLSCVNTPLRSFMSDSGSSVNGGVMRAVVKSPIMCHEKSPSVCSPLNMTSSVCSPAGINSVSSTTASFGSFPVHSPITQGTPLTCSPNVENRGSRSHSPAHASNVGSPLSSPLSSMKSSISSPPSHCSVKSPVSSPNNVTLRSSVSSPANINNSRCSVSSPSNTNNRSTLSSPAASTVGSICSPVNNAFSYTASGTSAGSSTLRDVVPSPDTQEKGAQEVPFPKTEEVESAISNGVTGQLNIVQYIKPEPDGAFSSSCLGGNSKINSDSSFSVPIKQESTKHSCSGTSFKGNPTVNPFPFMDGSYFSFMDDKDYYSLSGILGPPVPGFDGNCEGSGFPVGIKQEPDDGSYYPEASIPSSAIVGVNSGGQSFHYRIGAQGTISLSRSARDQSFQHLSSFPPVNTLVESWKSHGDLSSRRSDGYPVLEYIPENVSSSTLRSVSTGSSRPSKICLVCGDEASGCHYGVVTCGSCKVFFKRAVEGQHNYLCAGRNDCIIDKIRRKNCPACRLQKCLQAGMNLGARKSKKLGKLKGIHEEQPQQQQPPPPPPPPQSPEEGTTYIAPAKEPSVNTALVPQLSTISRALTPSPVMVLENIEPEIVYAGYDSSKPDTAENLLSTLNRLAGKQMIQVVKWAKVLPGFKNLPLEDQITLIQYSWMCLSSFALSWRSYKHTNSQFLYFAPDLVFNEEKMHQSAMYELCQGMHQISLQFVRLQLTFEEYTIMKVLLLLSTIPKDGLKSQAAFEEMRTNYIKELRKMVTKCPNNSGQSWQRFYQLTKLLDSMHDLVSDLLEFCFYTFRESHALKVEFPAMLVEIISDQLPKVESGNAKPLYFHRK
In textbook form, pIC50 equals minus log to base ten of the concentration in mol/L.

Value sought: pIC50, system Mineralocorticoid receptor (Homo sapiens, UniProt P08235), item COc1ccc(F)cc1C(C)(C)CC(O)(Cc1cc2ccncc2[nH]1)C1CCCC1 (single isomer, unassigned) . Result: 5.96

Value sought: pIC50, system Mineralocorticoid receptor (Homo sapiens, UniProt P08235), item COc1ccc(F)cc1C(C)(C)CC(O)(Cc1cc2cnccc2[nH]1)C1CC1 (stereo unspecified) . Result: 5.74

Value sought: pIC50, system Mineralocorticoid receptor (Homo sapiens, UniProt P08235), item Cc1ccc(F)cc1C(C)(C)C[C@](O)(Cc1cc2cnccc2[nH]1)C(C)(C)C . Result: 5.89

Value sought: pIC50, system Mineralocorticoid receptor (Homo sapiens, UniProt P08235), item Cc1ccc(F)cc1C(C)(C)C[C@@](O)(Cc1cc2cnccc2[nH]1)C(C)(C)C . Result: 6.38

Value sought: pIC50, system Mineralocorticoid receptor (Homo sapiens, UniProt P08235), item COc1ccc(F)cc1C(C)(C)CC(O)(Cc1cc2ccncc2[nH]1)C(C)(C)C (stereo unspecified) . Result: 5.74

Value sought: pIC50, system Mineralocorticoid receptor (Homo sapiens, UniProt P08235), item COc1ccc(F)cc1C(C)(C)CC(O)(Cc1cc2ccncc2[nH]1)C(C)C (stereo unspecified) . Result: 6.00

Value sought: pIC50, system Mineralocorticoid receptor (Homo sapiens, UniProt P08235), item Cc1ccc(F)cc1C(C)(C)CC(O)(Cc1cc2cnccc2[nH]1)C1CC1 (stereo unspecified) . Result: 5.81
